# System: 3D7
# measurementNotes: qHTS profiling for inhibitors of Plasmodium falciparum proliferation (AID 504749); also: nearly all actives have a fitted effect of over 60% in size; also: potency is read from the fitted curve at half-maximal effect
# appliedConditions: P. falciparum in erythrocytes, SYBR Green DNA, 72 h; series mostly up to 28.7 µM
Records with an inconclusive call do not appear. Calls of active or inactive are those of the source. Calls follow the shape of the dose curve; as a rule, active = well fitted inhibition curve with a large enough effect; inconclusive = small, poorly fitted or top-dose-only effect; inactive = flat fitted curve, though single readings scatter.
outcomeMeasure: Potency

Examples with their reported Potency follow.
C=C1/C(=C\C=C2/CCC[C@]3(C)[C@@H]([C@H](C)/C=C/[C@@H](O)C4CC4)CC[C@@H]23)C[C@@H](O)C[C@@H]1O = inactive
O=C1C(I)=CC(=C(c2cc(I)c(O)c(I)c2)c2ccccc2C(=O)O)C=C1I = inactive
C[C@H]1OC(OC2C(O)[C@@H](O)C(OC3C(O)[C@@H](O)C(O)O[C@@H]3CO)O[C@@H]2CO)[C@H](O)C(O)C1N[C@H]1C=C(CO)[C@@H](O)[C@H](O)C1O (stereo partly specified) = inactive
CCN(CC)C(=O)Nc1ccc(OC[C@H](O)CNC(C)(C)C)c(C(C)=O)c1 = inactive
CCC(C(=O)C(C)C(O)C(C)CCc1ccc(C)c(O)c1C(=O)O)C1OC(CC)(C2CC[C@@](O)(CC)C(C)O2)CC1C (stereo partly specified) = 447 nM (active)

Would you kindly look at the next entry?
Return reported Potency; argument: `CC[C@]1([C@H]2O[C@@H]([C@@H]3O[C@](O)(CO)[C@@H](C)C[C@H]3C)C[C@H]2C)CC[C@@H]([C@]2(C)CC[C@@]3(C[C@@H](O)[C@@H](C)[C@@H]([C@H](C)[C@H](OC)[C@H](C)C(=O)O)O3)O2)O1`
25.1 nM (active)

====

# measurementNotes: Cellular Toxicity (caspase-3) HUV-EC-C (AID 656);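 also: cells exposed to compound for 16 h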
# appliedConditions: HUV-EC-C cells, caspase-3 activation (apoptosis); series mostly up to 92.2 µM
Activity calls are given as the source filed them. Calls follow the shape of the dose curve; as a rule, active = well fitted curve in the direction sought with a large enough effect; inconclusive = small, poorly fitted or top-dose-only effect, or another doubt; inactive = no such curve, though single readings can be large or run the other way.
Please reply with one of these outcomes: t for active, f for inactive

Example results:
C/C=C1\C(=O)C[C@H]2[C@@H]3CCC4=CC(=O)CC[C@]4(C)[C@H]3CC[C@]12C = f
O=C(OCC(COC(=O)c1ccccc1)(COC(=O)c1ccccc1)COC(=O)c1ccccc1)c1ccccc1 = f
O=Cc1ccc(Cl)c(Cl)c1 = f
c1ccc2c(c1)-c1cccc3c1c-2cc1ccccc13 = f
Cc1ccc(S(=O)(=O)Oc2ccc(N=Nc3ccc(-c4ccc(N=Nc5c(O)ccc6cc(S(=O)(=O)O)cc(S(=O)(=O)O)c56)c(C)c4)cc3C)cc2)cc1 = f
CCC(C)Nc1ccc(NC(C)CC)cc1 (stereo not given) = f

Recorded test call requested for `CO[C@H]1/C=C/O[C@@]2(C)Oc3c(C)c(O)c4c(O)c(c5c(c4c3C2=O)NC2(CCN(CC(C)C)CC2)N=5)=NC(=O)/C(C)=C\C=C\[C@H](C)[C@H](O)[C@@H](C)[C@@H](O)[C@@H](C)[C@H](OC(C)=O)[C@@H]1C`
f

Try `C=CC(=O)OCC(CO)(COC(=O)C=C)COC(=O)C=C` next.
f

Try `CCCCCC/C(C=O)=C\c1ccccc1` next.
f

Try `C=C(C)c1ccccc1` next.
f

Try `CC(=O)Nc1ccc(C(=O)CCl)cc1` next.
f

====

# Tested on: Dd2
# measurementNotes: qHTS profiling for inhibitors of Plasmodium falciparum proliferation (AID 504749); also: nearly all actives have a fitted effect of over 60% in size
# appliedConditions: P. falciparum in erythrocytes, SYBR Green DNA, 72 h; series mostly up to 28.7 µM
Results filed as inconclusive are left out. Active and inactive are the calls of the source. The call rests on the fitted dose curve; in most records, active means well fitted inhibition curve with a large enough effect; inconclusive means small, poorly fitted or top-dose-only effect; inactive means flat fitted curve, though single readings scatter.
Please reply with one of these outcomes: active, inactive

Example results:
OCC1O[C@H](O[C@H]2C(O)C(O)C(O)O[C@@H]2CO)C(O)C(O)C1O (some centres undefined) = inactive
CCN(CC)CCOCCOC(=O)C(CC)(CC)c1ccccc1 (tested in a mixture with another compound) = active

Recorded test call requested for CC(=O)O[C@]1(C(C)=O)CCC2C3CCC4=CC(=O)CCC4(C)C3(F)C(O)CC21C (some centres undefined)
inactive

Try C[C@H]1[C@@H](OC(=O)CCC(=O)O)OC2OC3(C)CC[C@H]4[C@H](C)CC[C@@H]1[C@@]24OO3 (some centres undefined) next.
active

Try `CO/N=C(/C(=O)N[C@@H]1C(=O)N2C(C(=O)O)=C(CSc3cnns3)CS[C@H]12)c1csc(N)n1` next.
inactive

Try Cc1cnc(NC(=O)C2C(=O)c3ccccc3S(=O)(=O)N2C)s1 (centres undefined) next.
inactive

Try `Nc1nc(F)nc2c1ncn2[C@@H]1O[C@H](CO)[C@@H](O)[C@H]1O` next.
inactive

Try C[C@]12C=CC(=O)N[C@@H]1CC[C@@H]1C2CC[C@]2(C)C(C(=O)Nc3cc(C(F)(F)F)ccc3C(F)(F)F)CC[C@@H]12 (some centres undefined) next.
inactive

Try Cc1onc(-c2c(F)cccc2Cl)c1C(=O)NC1C(=O)N2C1SC(C)(C)C2C(=O)O (centres undefined) next.
inactive
